Data provenance is ChEMBL document CHEMBL4392844.

Biological target: UniProt P36888
Sequence (P36888 whole entry): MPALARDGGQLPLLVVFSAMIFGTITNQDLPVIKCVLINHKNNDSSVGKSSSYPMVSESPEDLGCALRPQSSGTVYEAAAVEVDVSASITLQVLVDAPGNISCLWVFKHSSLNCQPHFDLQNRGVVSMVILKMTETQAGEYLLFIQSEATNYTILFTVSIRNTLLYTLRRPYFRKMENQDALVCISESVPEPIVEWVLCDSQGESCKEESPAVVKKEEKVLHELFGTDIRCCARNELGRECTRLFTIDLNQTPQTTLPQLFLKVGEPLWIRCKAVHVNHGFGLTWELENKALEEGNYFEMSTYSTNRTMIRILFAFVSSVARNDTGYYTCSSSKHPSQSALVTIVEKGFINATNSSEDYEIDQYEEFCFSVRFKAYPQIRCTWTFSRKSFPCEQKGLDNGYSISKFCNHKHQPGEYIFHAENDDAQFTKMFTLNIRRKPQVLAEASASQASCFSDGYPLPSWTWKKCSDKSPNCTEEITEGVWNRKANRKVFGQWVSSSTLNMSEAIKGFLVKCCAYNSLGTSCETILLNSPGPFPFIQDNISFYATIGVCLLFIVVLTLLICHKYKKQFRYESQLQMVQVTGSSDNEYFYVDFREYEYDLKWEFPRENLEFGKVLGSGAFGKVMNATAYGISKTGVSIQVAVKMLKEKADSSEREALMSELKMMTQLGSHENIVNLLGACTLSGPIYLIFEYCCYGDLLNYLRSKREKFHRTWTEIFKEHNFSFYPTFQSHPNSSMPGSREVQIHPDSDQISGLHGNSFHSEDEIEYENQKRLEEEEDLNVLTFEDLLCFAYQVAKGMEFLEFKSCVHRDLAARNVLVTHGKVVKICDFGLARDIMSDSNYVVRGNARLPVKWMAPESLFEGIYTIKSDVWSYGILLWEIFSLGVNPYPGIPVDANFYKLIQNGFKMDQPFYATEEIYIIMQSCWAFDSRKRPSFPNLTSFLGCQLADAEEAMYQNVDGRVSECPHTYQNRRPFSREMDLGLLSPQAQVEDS
Readout: IC50

- Compound: "COc1cc2c(Oc3ccc(C4SCC(=O)N4NC(=O)Nc4ccc(F)cc4F)cc3F)ccnc2cc1OCCCN1CCN(C)CC1 (stereo unspecified)"
  Readout: "IC50"
  Endpoint Value: "8.6 nM"

* * *

target: Mast/stem cell growth factor receptor Kit (Homo sapiens)
Sequence (P10721 whole entry): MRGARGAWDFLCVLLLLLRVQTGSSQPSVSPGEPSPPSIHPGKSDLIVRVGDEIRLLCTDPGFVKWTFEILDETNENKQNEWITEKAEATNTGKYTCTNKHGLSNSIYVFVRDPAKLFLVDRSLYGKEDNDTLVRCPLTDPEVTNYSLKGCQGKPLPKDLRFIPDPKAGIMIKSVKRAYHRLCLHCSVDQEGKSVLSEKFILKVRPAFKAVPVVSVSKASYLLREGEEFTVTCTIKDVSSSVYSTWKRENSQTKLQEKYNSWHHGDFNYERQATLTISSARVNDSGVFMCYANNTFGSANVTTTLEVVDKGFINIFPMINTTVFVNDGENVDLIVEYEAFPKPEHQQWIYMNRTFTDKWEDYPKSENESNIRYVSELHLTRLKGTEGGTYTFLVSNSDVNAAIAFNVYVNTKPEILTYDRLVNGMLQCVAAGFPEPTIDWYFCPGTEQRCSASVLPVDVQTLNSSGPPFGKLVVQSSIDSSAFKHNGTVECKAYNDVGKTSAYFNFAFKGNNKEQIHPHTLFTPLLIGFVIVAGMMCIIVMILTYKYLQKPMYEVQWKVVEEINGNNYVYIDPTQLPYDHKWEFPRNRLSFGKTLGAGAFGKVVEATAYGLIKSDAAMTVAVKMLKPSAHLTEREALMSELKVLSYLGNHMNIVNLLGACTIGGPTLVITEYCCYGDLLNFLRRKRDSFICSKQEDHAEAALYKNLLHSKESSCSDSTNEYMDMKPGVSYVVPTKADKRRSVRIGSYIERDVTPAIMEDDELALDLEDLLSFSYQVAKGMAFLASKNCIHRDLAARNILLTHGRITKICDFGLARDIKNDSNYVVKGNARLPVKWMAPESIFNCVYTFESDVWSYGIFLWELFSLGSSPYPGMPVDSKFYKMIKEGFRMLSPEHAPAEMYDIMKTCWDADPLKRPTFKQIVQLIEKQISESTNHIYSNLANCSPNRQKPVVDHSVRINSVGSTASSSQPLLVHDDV

- Compound: "COc1cc2c(Oc3ccc(C4SCC(=O)N4NC(=O)Nc4ccc(F)cc4F)cc3F)ccnc2cc1OCCCN1CCN(C)CC1 (stereo unspecified)"
  Tested On: "Mast/stem cell growth factor receptor Kit (Homo sapiens)"
  IC50 (µM): 0.352

* * *

target: UniProtKB P08069
Sequence (P08069 31-736 limits assumed): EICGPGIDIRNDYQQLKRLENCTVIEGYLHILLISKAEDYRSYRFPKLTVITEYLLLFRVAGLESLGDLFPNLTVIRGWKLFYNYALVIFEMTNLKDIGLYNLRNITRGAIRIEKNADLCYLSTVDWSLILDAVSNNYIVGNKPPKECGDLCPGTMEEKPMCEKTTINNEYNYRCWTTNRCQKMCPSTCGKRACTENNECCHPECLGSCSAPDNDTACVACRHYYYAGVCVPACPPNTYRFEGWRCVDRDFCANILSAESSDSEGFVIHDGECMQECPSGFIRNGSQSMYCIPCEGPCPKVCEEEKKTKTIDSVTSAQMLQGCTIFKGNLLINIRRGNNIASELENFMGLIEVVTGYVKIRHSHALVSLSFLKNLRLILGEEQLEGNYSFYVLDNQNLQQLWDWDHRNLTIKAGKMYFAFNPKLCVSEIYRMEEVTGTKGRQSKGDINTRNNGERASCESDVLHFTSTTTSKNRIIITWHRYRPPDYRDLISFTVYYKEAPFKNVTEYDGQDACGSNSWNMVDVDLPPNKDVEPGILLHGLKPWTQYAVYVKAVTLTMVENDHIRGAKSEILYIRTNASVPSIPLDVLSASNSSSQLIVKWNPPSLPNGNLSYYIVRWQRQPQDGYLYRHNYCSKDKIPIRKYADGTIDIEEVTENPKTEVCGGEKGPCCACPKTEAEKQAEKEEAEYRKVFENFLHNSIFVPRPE
Sequence (P08069 741-1367 limits assumed): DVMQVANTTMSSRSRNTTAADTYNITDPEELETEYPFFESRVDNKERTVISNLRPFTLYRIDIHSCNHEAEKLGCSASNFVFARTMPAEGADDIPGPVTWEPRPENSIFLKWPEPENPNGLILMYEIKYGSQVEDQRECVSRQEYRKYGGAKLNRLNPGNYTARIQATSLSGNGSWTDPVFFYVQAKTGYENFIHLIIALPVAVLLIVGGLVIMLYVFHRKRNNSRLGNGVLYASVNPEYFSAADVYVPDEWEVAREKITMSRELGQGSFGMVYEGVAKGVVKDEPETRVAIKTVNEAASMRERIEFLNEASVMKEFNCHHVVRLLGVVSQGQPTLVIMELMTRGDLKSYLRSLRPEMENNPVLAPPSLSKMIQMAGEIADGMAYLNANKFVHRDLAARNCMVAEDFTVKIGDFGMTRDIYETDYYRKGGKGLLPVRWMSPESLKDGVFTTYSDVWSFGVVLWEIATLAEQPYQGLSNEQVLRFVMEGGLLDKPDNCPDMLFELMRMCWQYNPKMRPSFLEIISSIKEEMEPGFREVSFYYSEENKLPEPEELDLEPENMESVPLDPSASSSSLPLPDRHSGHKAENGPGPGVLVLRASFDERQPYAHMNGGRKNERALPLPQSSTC
pIC50: −log10 of the molar value.

- Compound: "COc1cc2c(Oc3ccc(C4SCC(=O)N4NC(=O)Nc4ccc(F)cc4F)cc3F)ccnc2cc1OCCCN1CCN(C)CC1 (stereo unspecified)"
  pIC50: 5.18

* * *

target: Proto-oncogene tyrosine-protein kinase Src (Homo sapiens, UniProt P12931)
Sequence (P12931 2-536 limits assumed): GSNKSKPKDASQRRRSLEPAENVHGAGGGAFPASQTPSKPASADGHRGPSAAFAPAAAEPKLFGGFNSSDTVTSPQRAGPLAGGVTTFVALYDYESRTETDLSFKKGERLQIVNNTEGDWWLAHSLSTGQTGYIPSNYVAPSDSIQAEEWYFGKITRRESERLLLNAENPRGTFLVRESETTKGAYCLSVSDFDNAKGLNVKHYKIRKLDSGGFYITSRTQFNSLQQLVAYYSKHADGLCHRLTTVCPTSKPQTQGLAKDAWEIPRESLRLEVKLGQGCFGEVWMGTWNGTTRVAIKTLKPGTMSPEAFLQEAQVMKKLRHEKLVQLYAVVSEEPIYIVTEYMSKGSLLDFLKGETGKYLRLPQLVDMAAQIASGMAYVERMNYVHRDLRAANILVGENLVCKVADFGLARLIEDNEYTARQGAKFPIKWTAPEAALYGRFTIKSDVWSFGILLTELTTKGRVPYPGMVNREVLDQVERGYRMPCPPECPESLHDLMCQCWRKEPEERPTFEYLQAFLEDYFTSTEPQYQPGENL
pIC50: −log10 of the molar value.

- Molecule: "COc1cc2c(Oc3ccc(C4SCC(=O)N4NC(=O)Nc4ccc(F)cc4F)cc3F)ccnc2cc1OCCCN1CCN(C)CC1 (stereo unspecified)"
  pIC50: 6.42

* * *

test system: HT-29; experiment: Cytotoxicity against human HT-29 cells assessed as reduction in cell proliferation measured after 72 hrs by MTT assay; type: functional, cell-based; conditions: HT-29, 72 h
pIC50: −log10 of the molar value.
// reported pIC50 per item
Readout: pIC50

- Molecule: "COc1cc2c(Oc3ccc(C4SCC(=O)N4NC(=O)Nc4ccc(F)cc4F)c(F)c3)ccnc2cc1OCCCN1CCOCC1 (stereo not given)"
  Endpoint Value: 5.89
- Molecule: "CCN1CCN(CCCOc2cc3nccc(Oc4ccc(C5SCC(=O)N5NC(=O)Nc5ccc(F)cc5F)cc4F)c3cc2OC)CC1 (stereo not given)"
  Endpoint Value: 6.49
- Molecule: "COc1cc2c(Oc3ccc(C4SCC(=O)N4NC(=O)Nc4ccc(Cl)cc4)cc3)ccnc2cc1OCCCN1CCOCC1 (stereo not given)"
  Endpoint Value: 5.18
- Molecule: "COc1cc2c(Oc3ccc(C4SCC(=O)N4NC(=O)Nc4ccc(F)cc4F)cc3F)ccnc2cc1OCCCN1CCOCC1 (stereo not given)"
  Endpoint Value: 6.07
- Molecule: "COc1cc2c(Oc3ccc(C4SCC(=O)N4NC(=O)Nc4ccc(F)c(F)c4F)cc3)ccnc2cc1OCCCN1CCOCC1 (stereo not given)"
  Endpoint Value: 5.36
- Molecule: "COc1cc2c(Oc3ccc(C4SCC(=O)N4NC(=O)Nc4cccc(Cl)c4)cc3)ccnc2cc1OCCCN1CCOCC1 (stereo not given)"
  Endpoint Value: 5.11
- Molecule: "COc1cc2c(Oc3ccc(C4SCC(=O)N4NC(=O)Nc4ccccc4Cl)cc3)ccnc2cc1OCCCN1CCOCC1 (stereo not given)"
  Endpoint Value: 5.19
- Molecule: "COc1cc2c(Oc3ccc(C4SCC(=O)N4NC(=O)Nc4ccc(F)cc4F)c(Cl)c3)ccnc2cc1OCCCN1CCOCC1 (stereo not given)"
  Endpoint Value: 5.55
- Molecule: "COc1cc2c(Oc3ccc(C4SCC(=O)N4NC(=O)Nc4cc(F)cc(F)c4)cc3)ccnc2cc1OCCCN1CCOCC1 (stereo not given)"
  Endpoint Value: 5.31
- Molecule: "COc1cc2c(Oc3ccc(C4SCC(=O)N4NC(=O)Nc4ccc(F)cc4F)cc3F)ccnc2cc1OCCCN1CCCN(C)CC1 (stereo not given)"
  Endpoint Value: 6.74
- Molecule: "COc1cc2c(Oc3ccc(C4SCC(=O)N4NC(=O)Nc4ccc(F)cc4)cc3)ccnc2cc1OCCCN1CCOCC1 (stereo not given)"
  Endpoint Value: 5.32
- Molecule: "COc1cc2c(Oc3ccc(C4SCC(=O)N4NC(=O)Nc4ccc(F)cc4F)cc3)ccnc2cc1OCCCN1CCOCC1 (stereo not given)"
  Endpoint Value: 5.64
- Molecule: "COc1cc2c(Oc3ccc(C4SCC(=O)N4NC(=O)Nc4ccc(F)cc4F)cc3Cl)ccnc2cc1OCCCN1CCOCC1 (stereo not given)"
  Endpoint Value: 5.62
- Molecule: "COc1cc2c(Oc3ccc(C4SCC(=O)N4NC(=O)Nc4ccccc4)cc3)ccnc2cc1OCCCN1CCOCC1 (stereo not given)"
  Endpoint Value: 5.28
- Molecule: "COc1cc2c(Oc3ccc(C4SCC(=O)N4NC(=O)Nc4ccc(F)cc4F)cc3F)ccnc2cc1OCCCN1CCN(C)CC1 (stereo not given)"
  Endpoint Value: 6.96
